Record form. Attribute: solubility. Fill in for each entry.
test.details: Solubility in water and organic solvents
condition.context: dmso, organic solvent or mixture

Consider the following illustrative entries.
{"columns": ["molecule", "solubility"],
 "data": [
  ["O=C(/C=C/CCCCCCCCC(=O)NCCO)NCCO [Example 26]", "> 10000 µg/mL"],
  ["O=C(/C=C/CCCCCCCCC(=O)NCCCO)NCCCO [Example 13]", "> 5000 µg/mL"],
  ["CCCCCCCCCCCCCCCC(=O)NCc1ccc(O)c(OC)c1 [Example 21]", "> 10000 µg/mL"]
]}

Hi, could you look up solubility for each item in my list?
1. CCCCCCCCCCCCCCCC(=O)NCCCO [Example 24, N-(3-hydroxypropyl)-palmitamide]
2. CCCCCCCCCCCC(=O)NCCCO [Example 12, N-(3-hydroxypropyl)-lauroylamide]

Return:
> 3000 µg/mL
> 10000 µg/mL
